target.system: mouse TMEM16A mutant I640A (Mus musculus, UniProt Q8BHY3, I640A)
Construct: expressed in transfected cells; host or cells: HEK293T
protocol.description: Inside-out patch recording of 1PBC block, mutant I640A
Format: cell-based
protocol.conditions: I640A; V -100 mV
recorded.metric: IC50 (µM)
Give just the numeric value; µM need not be written.

Can you look up the measured IC50 of `N#Cc1c(C(F)(F)F)cc(O)n2c1nc1ccccc12` for me?
60.2

----------
target.system: mouse TMEM16A mutant I512A (Mus musculus, UniProt Q8BHY3, I512A)
Construct: expressed in transfected cells; host or cells: HEK293T
Sequence (Q8BHY3 1-960 I512A): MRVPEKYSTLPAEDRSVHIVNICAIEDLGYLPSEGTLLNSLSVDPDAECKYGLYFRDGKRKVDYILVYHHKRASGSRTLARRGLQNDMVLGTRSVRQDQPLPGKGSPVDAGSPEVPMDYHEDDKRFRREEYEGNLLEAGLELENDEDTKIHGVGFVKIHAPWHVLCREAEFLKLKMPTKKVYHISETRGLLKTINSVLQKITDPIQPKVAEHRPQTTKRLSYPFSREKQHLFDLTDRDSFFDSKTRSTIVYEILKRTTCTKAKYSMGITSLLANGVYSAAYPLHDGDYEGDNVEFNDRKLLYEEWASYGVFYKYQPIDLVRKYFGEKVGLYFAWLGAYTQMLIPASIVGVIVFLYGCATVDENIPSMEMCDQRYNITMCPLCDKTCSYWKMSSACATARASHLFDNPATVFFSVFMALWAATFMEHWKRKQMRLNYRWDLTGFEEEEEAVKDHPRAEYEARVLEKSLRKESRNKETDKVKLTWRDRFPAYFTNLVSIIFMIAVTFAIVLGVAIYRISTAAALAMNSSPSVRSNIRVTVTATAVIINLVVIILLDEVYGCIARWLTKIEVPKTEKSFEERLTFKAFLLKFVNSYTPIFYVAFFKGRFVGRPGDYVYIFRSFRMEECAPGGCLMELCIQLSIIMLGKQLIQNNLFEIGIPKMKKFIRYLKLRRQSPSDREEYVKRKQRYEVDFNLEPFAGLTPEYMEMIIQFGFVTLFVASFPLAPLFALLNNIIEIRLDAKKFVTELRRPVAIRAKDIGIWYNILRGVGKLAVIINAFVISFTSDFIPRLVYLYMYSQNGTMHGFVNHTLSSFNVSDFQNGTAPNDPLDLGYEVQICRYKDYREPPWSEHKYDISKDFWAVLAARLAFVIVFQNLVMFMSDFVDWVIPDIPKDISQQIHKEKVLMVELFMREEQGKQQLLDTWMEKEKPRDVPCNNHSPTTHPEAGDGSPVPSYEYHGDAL
protocol.description: Inside-out patch recording of 1PBC block, mutant I512A
Assay type: cell-based
protocol.conditions: I512A; V 40 mV
recorded.metric: IC50 (µM)
Only the number, expressed in µM, is required.

Quick check: IC50 on mouse TMEM16A mutant I512A (Mus musculus, UniProt Q8BHY3, I512A), item N#Cc1c(C(F)(F)F)cc(O)n2c1nc1ccccc12 [1PBC] ?
21.8

----------
target.system: mouse TMEM16A mutant R535A (Mus musculus, UniProt Q8BHY3, R535A)
Construct: expressed in transfected cells; host or cells: HEK293T
protocol.description: Inside-out patch recording of 1PBC block, mutant R535A
Assay type: cell-based
protocol.conditions: R535A; V -40 mV
recorded.metric: pIC50
Would you please state pIC50, meaning minus log10 of the concentration in mol/L, as a bare number?

Please tell me: pIC50 of `N#Cc1c(C(F)(F)F)cc(O)n2c1nc1ccccc12` , system mouse TMEM16A mutant R535A (Mus musculus, UniProt Q8BHY3, R535A)?
4.75
